Assay: Neurotoxicity in ip dosed Mus musculus albino (mouse) assessed as motor impairment after 0.5 hr by rotorod test
Type: toxicity, organism-based
Conditions: in vivo
# maps each entry to its MTD at 0.5 h
Write the quantity with the unit trailing the number.

Item: O=C(CCCN1C(=O)c2ccccc2C1=O)Nc1ccc([N+](=O)[O-])cc1 | MTD at 0.5 h: 100 mg/kg

Item: O=C(CCCN1C(=O)c2ccccc2C1=O)Nc1ccc(Cl)cc1I | MTD at 0.5 h: 300 mg/kg

Item: O=C(CCCN1C(=O)c2ccccc2C1=O)Nc1ccc(Br)cc1 | MTD at 0.5 h: 100 mg/kg

* * *

System: Mus musculus
Experiment: Anticonvulsant activity in Mus musculus albino (mouse) assessed as protection against subcutaneous strychnine-induced seizures at 300 mg/kg, ip after 0.5 hr
Assay type: functional, organism-based
Parameters: dose 300 mg/kg
The source made the active and inactive calls. No cut-off for these calls is given here.
measured-attribute: Activity

Item: CCC1(C)CC(=O)NC1=O (stereo not drawn) [ETHOSUXIMIDE] | Activity: inactive

Item: CCc1ccc(NC(=O)CCCN2C(=O)c3ccccc3C2=O)cc1 | Activity: inactive

Item: O=C(CCCN1C(=O)c2ccccc2C1=O)Nc1ccc([N+](=O)[O-])cc1 | Activity: inactive

* * *

Tested on: Mus musculus
Assay: Anticonvulsant activity in Mus musculus albino (mouse) assessed as protection against subcutaneous strychnine-induced seizures at 300 mg/kg, ip after 0.5 hr
Assay type: functional, organism-based
Design: dose 300 mg/kg
The source made the active and inactive calls. No cut-off for these calls is given here.
measured-attribute: Activity

Study these solved cases before continuing.
Item: COc1ccc(NC(=O)CCCN2C(=O)c3ccccc3C2=O)cc1 | Activity: inactive

Item: O=C1NC(=O)C(c2ccccc2)(c2ccccc2)N1 | Activity: inactive

Item: O=C(CCCN1C(=O)c2ccccc2C1=O)Nc1ccc(Br)cc1 | Activity: inactive

Item: Cc1ccc(NC(=O)CCCN2C(=O)c3ccccc3C2=O)cc1 | Activity: inactive

Item: O=C(CCCN1C(=O)c2ccccc2C1=O)Nc1ccc(Cl)cc1Cl | Activity: inactive

Would you kindly look at the next entry?
Item: O=C(CCCN1C(=O)c2ccccc2C1=O)Nc1ccccc1 | Activity: inactive

* * *

# maps each entry to its minimal effective dose
System: Mus musculus
Assay: Anticonvulsant activity in ip dosed Mus musculus albino (mouse) assessed as protection against ip picrotoxin-induced seizures after 0.5 hr
Assay type: functional
Details: read-out: MED
Unit mg/kg implied. Number only.

Item: O=C(CCCN1C(=O)c2ccccc2C1=O)Nc1ccc(F)cc1 | minimal effective dose: 300

Would you kindly look at the next entry?
Item: COc1ccc(NC(=O)CCCN2C(=O)c3ccccc3C2=O)cc1 | minimal effective dose: 300

* * *

Test system: Mus musculus
Assay: Anticonvulsant activity in ip dosed Mus musculus albino (mouse) assessed as protection against ip picrotoxin-induced seizures after 0.5 hr
Format: functional
Conditions: read-out: MED
# maps each entry to its minimal effective dose
Unit mg/kg implied. Number only.

Study these solved cases before continuing.
Item: CCc1ccc(NC(=O)CCCN2C(=O)c3ccccc3C2=O)cc1 | minimal effective dose: 100

Item: O=C(CCCN1C(=O)c2ccccc2C1=O)Nc1ccc(Cl)cc1I | minimal effective dose: 300

Item: O=C(CCCN1C(=O)c2ccccc2C1=O)Nc1ccc(Br)cc1 | minimal effective dose: 100

Would you kindly look at the next entry?
Item: Cc1cc(Cl)ccc1NC(=O)CCCN1C(=O)c2ccccc2C1=O | minimal effective dose: 100
